Inhibitory activity (% of control), p70S6K(h): recorded values
# target or test system: UniProtKB P23443
# Sequence (P23443 whole entry): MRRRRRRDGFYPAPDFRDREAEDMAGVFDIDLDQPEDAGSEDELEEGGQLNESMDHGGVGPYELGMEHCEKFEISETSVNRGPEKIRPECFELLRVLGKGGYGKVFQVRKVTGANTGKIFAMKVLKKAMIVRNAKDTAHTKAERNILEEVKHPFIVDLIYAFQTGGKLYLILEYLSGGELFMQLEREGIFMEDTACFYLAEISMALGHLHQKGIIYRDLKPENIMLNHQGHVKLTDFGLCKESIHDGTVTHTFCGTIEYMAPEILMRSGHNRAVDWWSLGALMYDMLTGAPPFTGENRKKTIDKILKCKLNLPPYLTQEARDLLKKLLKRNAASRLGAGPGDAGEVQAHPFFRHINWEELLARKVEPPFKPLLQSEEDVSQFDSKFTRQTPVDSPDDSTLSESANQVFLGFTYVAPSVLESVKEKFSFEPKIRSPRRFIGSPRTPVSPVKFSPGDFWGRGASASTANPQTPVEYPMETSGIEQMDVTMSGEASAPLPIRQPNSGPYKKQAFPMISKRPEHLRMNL
# method notes: p70S6K(h) kinase assay
# Format: biochemical
# measurement context: 3 μM; percent of control kinase activity
reported property: Inhibitory activity (% of control), p70S6K(h)

Fc1ccc(-c2n[nH]c3ccc(-c4n[nH]c(C5CCCC5)n4)cc23)cc1 [CC006, reference compound]; 41 % of control
CC(C)Cc1nc(-c2ccc3[nH]nc(-c4ccc5cc(OCCN6CCCC6)ccc5c4)c3c2)n[nH]1; 16 % of control
CCN1CCC[C@H]1COc1ccc2cc(-c3n[nH]c4ccc(-c5nc(CC(C)(C)C)n[nH]5)cc34)ccc2c1; 3 % of control
COc1ccc2cc(-c3n[nH]c4ccc(-c5n[nH]c(CN6CCOCC6)n5)cc34)ccc2c1; 17 % of control
CC(C)(C)Cc1nc(-c2ccc3[nH]nc(-c4ccc5cc(OCc6ccccn6)ccc5c4)c3c2)n[nH]1; 40 % of control
O=C(NC1CCCC1)c1cccc(-c2n[nH]c3ccc(-c4nc[nH]n4)cc23)c1 [CC007, reference compound]; 83 % of control

----------
Listed below: Inhibitory activity (% of control), Blk(m) values for each entry.
# target or test system: UniProtKB P16277
# Sequence (P16277 whole entry): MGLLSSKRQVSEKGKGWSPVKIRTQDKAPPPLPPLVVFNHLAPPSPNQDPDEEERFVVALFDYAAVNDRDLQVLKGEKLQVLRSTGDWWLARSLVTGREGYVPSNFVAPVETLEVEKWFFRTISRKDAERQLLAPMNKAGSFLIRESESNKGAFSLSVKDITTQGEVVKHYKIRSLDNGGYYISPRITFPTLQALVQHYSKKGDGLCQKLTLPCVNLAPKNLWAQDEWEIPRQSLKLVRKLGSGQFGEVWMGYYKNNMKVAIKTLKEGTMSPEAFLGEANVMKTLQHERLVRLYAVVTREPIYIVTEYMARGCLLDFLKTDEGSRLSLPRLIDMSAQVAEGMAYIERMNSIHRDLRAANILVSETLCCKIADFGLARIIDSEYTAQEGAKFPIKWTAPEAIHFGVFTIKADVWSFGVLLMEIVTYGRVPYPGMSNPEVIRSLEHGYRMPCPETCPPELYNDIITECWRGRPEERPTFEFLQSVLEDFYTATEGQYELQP
# method notes: Blk(m) kinase assay
# Format: biochemical
# measurement context: 3 μM; percent of control kinase activity
reported property: Inhibitory activity (% of control), Blk(m)

COc1ccc2cc(-c3n[nH]c4ccc(-c5n[nH]c(CN6CCOCC6)n5)cc34)ccc2c1 [CC001]; 25 % of control
CCN1CCC[C@H]1COc1ccc2cc(-c3n[nH]c4ccc(-c5nc(CC(C)(C)C)n[nH]5)cc34)ccc2c1 [CC005]; 4 % of control
Fc1ccc(-c2n[nH]c3ccc(-c4n[nH]c(C5CCCC5)n4)cc23)cc1 [CC006, reference compound]; 60 % of control
CC(C)(C)Cc1nc(-c2ccc3[nH]nc(-c4ccc5cc(OCc6ccccn6)ccc5c4)c3c2)n[nH]1 [CC004]; 43 % of control
CC(C)Cc1nc(-c2ccc3[nH]nc(-c4ccc5cc(OCCN6CCCC6)ccc5c4)c3c2)n[nH]1 [CC002]; 11 % of control
O=C(NC1CCCC1)c1cccc(-c2n[nH]c3ccc(-c4nc[nH]n4)cc23)c1 [CC007, reference compound]; 76 % of control

----------
# target or test system: CaMKIV(h) (Homo sapiens)
# method notes: CaMKIV(h) kinase assay
# Assay type: biochemical
# measurement context: 3 μM; percent of control kinase activity
reported property: Inhibitory activity (% of control), CaMKIV(h)

CC(C)(C)Cc1nc(-c2ccc3[nH]nc(-c4ccc5cc(OCc6ccccn6)ccc5c4)c3c2)n[nH]1; 80 % of control
COc1ccc2cc(-c3n[nH]c4ccc(-c5n[nH]c(CN6CCOCC6)n5)cc34)ccc2c1; 82 % of control
CC(C)Cc1nc(-c2ccc3[nH]nc(-c4ccc5cc(OCCN6CCCC6)ccc5c4)c3c2)n[nH]1; 60 % of control
Fc1ccc(-c2n[nH]c3ccc(-c4n[nH]c(C5CCCC5)n4)cc23)cc1 [CC006, reference compound]; 95 % of control
CCN1CCC[C@H]1COc1ccc2cc(-c3n[nH]c4ccc(-c5nc(CC(C)(C)C)n[nH]5)cc34)ccc2c1; 22 % of control
O=C(NC1CCCC1)c1cccc(-c2n[nH]c3ccc(-c4nc[nH]n4)cc23)c1 [CC007, reference compound]; 86 % of control

----------
# target or test system: PRK2(h) (Homo sapiens)
# Sequence (Q16513 whole entry): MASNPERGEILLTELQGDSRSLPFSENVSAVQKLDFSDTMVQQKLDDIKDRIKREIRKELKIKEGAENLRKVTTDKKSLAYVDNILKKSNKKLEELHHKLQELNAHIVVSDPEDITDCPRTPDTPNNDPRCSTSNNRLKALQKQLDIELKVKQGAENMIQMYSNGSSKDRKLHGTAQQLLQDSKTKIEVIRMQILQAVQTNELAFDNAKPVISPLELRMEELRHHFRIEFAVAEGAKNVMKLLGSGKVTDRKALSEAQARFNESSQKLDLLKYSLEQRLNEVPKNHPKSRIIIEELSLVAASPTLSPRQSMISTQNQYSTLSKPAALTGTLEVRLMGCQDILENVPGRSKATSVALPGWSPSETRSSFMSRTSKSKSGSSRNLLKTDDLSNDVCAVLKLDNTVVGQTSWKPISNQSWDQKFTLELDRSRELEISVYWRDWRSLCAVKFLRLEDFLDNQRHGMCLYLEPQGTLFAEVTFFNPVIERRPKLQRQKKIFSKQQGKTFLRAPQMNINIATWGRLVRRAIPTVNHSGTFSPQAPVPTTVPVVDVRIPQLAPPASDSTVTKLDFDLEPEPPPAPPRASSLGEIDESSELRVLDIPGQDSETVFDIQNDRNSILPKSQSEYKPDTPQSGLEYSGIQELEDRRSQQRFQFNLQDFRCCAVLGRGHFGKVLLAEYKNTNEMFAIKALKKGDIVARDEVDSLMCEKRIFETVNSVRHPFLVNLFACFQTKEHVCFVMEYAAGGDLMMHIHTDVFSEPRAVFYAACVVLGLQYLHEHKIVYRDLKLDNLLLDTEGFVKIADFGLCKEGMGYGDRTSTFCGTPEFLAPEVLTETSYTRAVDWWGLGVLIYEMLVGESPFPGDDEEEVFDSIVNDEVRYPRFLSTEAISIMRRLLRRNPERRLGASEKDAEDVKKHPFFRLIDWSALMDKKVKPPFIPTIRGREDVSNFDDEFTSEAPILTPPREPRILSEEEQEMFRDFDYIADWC
# method notes: PRK2(h) kinase assay
# Assay type: biochemical
# measurement context: 3 μM; percent of control kinase activity
reported property: Inhibitory activity (% of control), PRK2(h)

CCN1CCC[C@H]1COc1ccc2cc(-c3n[nH]c4ccc(-c5nc(CC(C)(C)C)n[nH]5)cc34)ccc2c1; 1 % of control
CC(C)(C)Cc1nc(-c2ccc3[nH]nc(-c4ccc5cc(OCc6ccccn6)ccc5c4)c3c2)n[nH]1; 3 % of control
Fc1ccc(-c2n[nH]c3ccc(-c4n[nH]c(C5CCCC5)n4)cc23)cc1 [CC006, reference compound]; 24 % of control
COc1ccc2cc(-c3n[nH]c4ccc(-c5n[nH]c(CN6CCOCC6)n5)cc34)ccc2c1; 9 % of control
CC(C)Cc1nc(-c2ccc3[nH]nc(-c4ccc5cc(OCCN6CCCC6)ccc5c4)c3c2)n[nH]1; 4 % of control
O=C(NC1CCCC1)c1cccc(-c2n[nH]c3ccc(-c4nc[nH]n4)cc23)c1 [CC007, reference compound]; 68 % of control

----------
# target or test system: CHK2(h) (Homo sapiens, UniProt O96017)
# Sequence (O96017 whole entry): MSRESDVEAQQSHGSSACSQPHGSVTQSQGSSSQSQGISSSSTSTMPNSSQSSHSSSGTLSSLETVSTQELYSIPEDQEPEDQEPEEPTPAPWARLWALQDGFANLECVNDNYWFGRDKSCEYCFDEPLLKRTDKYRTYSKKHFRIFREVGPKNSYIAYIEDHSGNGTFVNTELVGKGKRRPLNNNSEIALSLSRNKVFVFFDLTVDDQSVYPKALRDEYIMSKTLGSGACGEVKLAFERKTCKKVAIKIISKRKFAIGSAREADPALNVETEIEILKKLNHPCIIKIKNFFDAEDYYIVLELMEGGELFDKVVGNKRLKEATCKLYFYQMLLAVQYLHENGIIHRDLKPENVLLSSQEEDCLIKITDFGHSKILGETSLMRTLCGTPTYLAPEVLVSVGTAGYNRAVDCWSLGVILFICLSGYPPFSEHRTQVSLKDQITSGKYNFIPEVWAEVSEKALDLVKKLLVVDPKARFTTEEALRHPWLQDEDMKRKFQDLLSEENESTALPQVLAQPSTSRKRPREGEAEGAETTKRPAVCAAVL
# method notes: CHK2(h) kinase assay
# Format: biochemical
# measurement context: 3 μM; percent of control kinase activity
Recorded Inhibitory activity (% of control), CHK2(h) by entry
reported property: Inhibitory activity (% of control), CHK2(h)

Fc1ccc(-c2n[nH]c3ccc(-c4n[nH]c(C5CCCC5)n4)cc23)cc1 [CC006, reference compound]; 20 % of control
CCN1CCC[C@H]1COc1ccc2cc(-c3n[nH]c4ccc(-c5nc(CC(C)(C)C)n[nH]5)cc34)ccc2c1; 1 % of control
CC(C)Cc1nc(-c2ccc3[nH]nc(-c4ccc5cc(OCCN6CCCC6)ccc5c4)c3c2)n[nH]1; 1 % of control
O=C(NC1CCCC1)c1cccc(-c2n[nH]c3ccc(-c4nc[nH]n4)cc23)c1 [CC007, reference compound]; 6 % of control
CC(C)(C)Cc1nc(-c2ccc3[nH]nc(-c4ccc5cc(OCc6ccccn6)ccc5c4)c3c2)n[nH]1; 7 % of control
COc1ccc2cc(-c3n[nH]c4ccc(-c5n[nH]c(CN6CCOCC6)n5)cc34)ccc2c1; 2 % of control

----------
// Inhibitory activity (% of control), MSK1(h) lookup, one value per entry
# target or test system: MSK1(h) (Homo sapiens, UniProt O75582)
# Sequence (O75582 whole entry): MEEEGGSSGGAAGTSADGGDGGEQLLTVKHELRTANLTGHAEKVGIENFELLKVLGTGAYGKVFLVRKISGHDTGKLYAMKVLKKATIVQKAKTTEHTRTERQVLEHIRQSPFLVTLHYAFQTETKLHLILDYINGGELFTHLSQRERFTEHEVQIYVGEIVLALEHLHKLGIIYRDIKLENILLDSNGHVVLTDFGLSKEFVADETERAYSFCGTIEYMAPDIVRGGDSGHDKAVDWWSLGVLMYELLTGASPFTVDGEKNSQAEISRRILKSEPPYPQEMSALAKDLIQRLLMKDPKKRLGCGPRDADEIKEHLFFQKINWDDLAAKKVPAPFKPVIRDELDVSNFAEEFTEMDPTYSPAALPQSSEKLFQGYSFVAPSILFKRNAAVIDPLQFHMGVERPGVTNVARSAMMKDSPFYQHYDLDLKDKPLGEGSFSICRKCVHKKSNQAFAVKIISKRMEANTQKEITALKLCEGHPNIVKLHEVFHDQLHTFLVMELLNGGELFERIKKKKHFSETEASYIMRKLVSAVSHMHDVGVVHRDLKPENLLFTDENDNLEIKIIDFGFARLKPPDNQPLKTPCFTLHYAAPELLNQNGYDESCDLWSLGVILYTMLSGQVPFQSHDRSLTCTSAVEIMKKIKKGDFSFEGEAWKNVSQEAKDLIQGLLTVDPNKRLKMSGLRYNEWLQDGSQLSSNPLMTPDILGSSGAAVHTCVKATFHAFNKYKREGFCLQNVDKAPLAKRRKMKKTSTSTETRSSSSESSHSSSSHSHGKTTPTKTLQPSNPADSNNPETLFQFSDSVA
# method notes: MSK1(h) kinase assay
# Format: biochemical
# measurement context: 3 μM; percent of control kinase activity
reported property: Inhibitory activity (% of control), MSK1(h)

CC(C)Cc1nc(-c2ccc3[nH]nc(-c4ccc5cc(OCCN6CCCC6)ccc5c4)c3c2)n[nH]1; 45 % of control
COc1ccc2cc(-c3n[nH]c4ccc(-c5n[nH]c(CN6CCOCC6)n5)cc34)ccc2c1; 62 % of control
O=C(NC1CCCC1)c1cccc(-c2n[nH]c3ccc(-c4nc[nH]n4)cc23)c1 [CC007, reference compound]; 89 % of control
Fc1ccc(-c2n[nH]c3ccc(-c4n[nH]c(C5CCCC5)n4)cc23)cc1 [CC006, reference compound]; 72 % of control
CC(C)(C)Cc1nc(-c2ccc3[nH]nc(-c4ccc5cc(OCc6ccccn6)ccc5c4)c3c2)n[nH]1; 76 % of control
CCN1CCC[C@H]1COc1ccc2cc(-c3n[nH]c4ccc(-c5nc(CC(C)(C)C)n[nH]5)cc34)ccc2c1; 25 % of control

----------
Measured Inhibitory activity (% of control), CHK1(h) values are reported for all entries that follow.
# target or test system: CHK1(h) (Homo sapiens, UniProt O14757)
# Sequence (O14757 1-476): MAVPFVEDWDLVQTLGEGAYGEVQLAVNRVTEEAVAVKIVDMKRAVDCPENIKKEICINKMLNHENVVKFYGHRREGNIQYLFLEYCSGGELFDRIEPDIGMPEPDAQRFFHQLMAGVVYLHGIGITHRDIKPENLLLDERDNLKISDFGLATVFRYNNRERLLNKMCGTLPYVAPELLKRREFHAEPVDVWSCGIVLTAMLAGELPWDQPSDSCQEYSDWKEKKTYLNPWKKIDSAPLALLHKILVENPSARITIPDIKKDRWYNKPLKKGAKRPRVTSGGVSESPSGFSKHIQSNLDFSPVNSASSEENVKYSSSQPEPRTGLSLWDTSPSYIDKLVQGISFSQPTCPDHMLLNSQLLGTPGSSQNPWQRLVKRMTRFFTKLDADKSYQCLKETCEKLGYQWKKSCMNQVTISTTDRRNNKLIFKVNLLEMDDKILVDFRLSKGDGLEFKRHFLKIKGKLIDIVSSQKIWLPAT
# method notes: CHK1(h) kinase assay
# Format: biochemical
# measurement context: 3 μM; percent of control kinase activity
reported property: Inhibitory activity (% of control), CHK1(h)

CC(C)(C)Cc1nc(-c2ccc3[nH]nc(-c4ccc5cc(OCc6ccccn6)ccc5c4)c3c2)n[nH]1 [CC004]; 64 % of control
O=C(NC1CCCC1)c1cccc(-c2n[nH]c3ccc(-c4nc[nH]n4)cc23)c1 [CC007, reference compound]; 90 % of control
CCN1CCC[C@H]1COc1ccc2cc(-c3n[nH]c4ccc(-c5nc(CC(C)(C)C)n[nH]5)cc34)ccc2c1 [CC005]; 6 % of control
Fc1ccc(-c2n[nH]c3ccc(-c4n[nH]c(C5CCCC5)n4)cc23)cc1 [CC006, reference compound]; 70 % of control
COc1ccc2cc(-c3n[nH]c4ccc(-c5n[nH]c(CN6CCOCC6)n5)cc34)ccc2c1 [CC001]; 36 % of control
CC(C)Cc1nc(-c2ccc3[nH]nc(-c4ccc5cc(OCCN6CCCC6)ccc5c4)c3c2)n[nH]1 [CC002]; 12 % of control
